These entries and their values trace back to PubChem BioAssay (NCI).

Please go through the items and note down their TGI.
- Tested on: SNB-75 CNS
- test-details: NCI tumour cell line growth inhibition, 48 h

Exercise: Retrieve TGI measured for C/C1=C\C=C(\C(C)C)CC/C(C(=O)O)=C\CC/C(C)=C/CC1 and print it.
Solution: > 100 µM

Exercise: Supply measured TGI of CC1=C(C(=O)Nc2ccc(Cl)c(C(=O)OC(C)C)c2)SCCO1 in your reply.
Solution: > 100 µM

Exercise: Identify measured TGI corresponding to Cn1c(N/N=C/c2ccccc2)nc(-c2ccc([N+](=O)[O-])cc2)c(C#N)c1=O
Solution: > 100 µM

Exercise: Identify measured TGI corresponding to CC(=O)NC(CC(C)C)C(=O)NC(Cc1ccccc1)C(=S)N1CCCC1 (centres undefined)
Solution: > 100 µM

Exercise: Annotate the compound Cn1cc(C2=C(c3cn(CCCCCSC(=N)N)c4ccccc34)C(=O)NC2=O)c2ccccc21 with its measured TGI.
Solution: 4.36 µM

Exercise: Given C[C@@H]1S[C@H](c2c(Cl)cccc2Cl)N2Cc3ccccc3N=C12 , respond with its TGI.
Solution: > 100 µM

Exercise: Find the measured TGI of O=C(Nc1ccccc1)c1cc(S(=O)(=O)N2CCNNC2=O)c(S)cc1Cl and report it.
Solution: > 100 µM

Exercise: Given CN1CSC(=S)N(Cc2ccccc2)C1 , respond with its TGI.
Solution: 65.9 µM

Exercise: In one line, give reported TGI of the entry CC1=C(Nc2ccc(N3CCN(C)CC3)cc2)C(=O)c2cncnc2C1=O .
Solution: 30 µM

Exercise: Report TGI, nothing else, for this compound: Cc1ccc(S(=O)(=O)N/N=C(/c2nc3ccc([N+](=O)[O-])cc3[nH]c2=O)C(O)c2ccc(C(O)/C(=N\NS(=O)(=O)c3ccc(C)cc3)c3nc4ccc([N+](=O)[O-])cc4[nH]c3=O)cc2)cc1 (centres undefined)
Solution: > 100 µM

Exercise: Report measured TGI; entry is CC1CC(=O)N(N(C)C)C(C#N)(C#N)C1(C#N)C#N (centres undefined)
Solution: > 51 µM

Exercise: Give TGI for the following compound: O=C(CN1C(=O)S/C(=C\C(Cl)=C\c2ccccc2)C1=O)NC1C=CS(=O)(=O)C1 (centres undefined)
Solution: 12.6 µM

Exercise: Specify measured TGI for O=C(CCc1ccccc1)On1c(-c2ccccc2)nc2ccccc2c1=S .
Solution: > 100 µM

Exercise: Give the reported value of TGI for this record: COc1cc(CCc2ccc(N)cc2)cc(OC)c1OC
Solution: > 100 µM

====

Please respond with reported TGI for every item in the list.
- Test system: HT29 colon
- test-details: NCI tumour cell line growth inhibition, 48 h

Exercise: Specify measured TGI for O=c1cnn(CCOCP(=O)(O)O)c(=O)[nH]1 .
Solution: > 100 µM

Exercise: Using known records, supply TGI for O=P(O)(O)C1(P(=O)(O)O)CC1
Solution: > 100 µM

Exercise: Tell us which TGI value is on record for Oc1[nH]c2ccccc2c1/C=c1/cc2c(c(-c3ccc(F)cc3)n1)=Nc1ccccc1-2
Solution: 1.43 µM

Exercise: Answer with the recorded TGI of O=[N+]([O-])c1ccc(O)c(/C=N/NC(=S)N2CCCCC2)c1 only.
Solution: 15 µM

Exercise: Give the measured TGI for O=C(NNc1nc(-c2ccccc2)cs1)C(F)(F)F
Solution: > 100 µM

Exercise: Return value of TGI for input COc1ccccc1C[C@@H]1OC2(C=CC(=O)C=C2)O[C@H]1Cc1ccccc1OC , no commentary.
Solution: 16.7 µM

Exercise: Specify measured TGI for COc1cc2c3c(n(C)c(=O)c2cc1OC)-c1ccc(C#N)cc1C3=O .
Solution: > 100 µM

Exercise: Provide only the value of recorded TGI for O=C1Nc2ccccc2/C1=c1\[nH]c(=O)/c(=C\c2ccc(OCc3ccccc3)cn2)[nH]c1=O
Solution: > 100 µM

Exercise: Give the reported TGI for this molecule. Cc1ccc(S(=O)(=O)N/N=C(/c2nc3ccc([N+](=O)[O-])cc3[nH]c2=O)C(O)c2ccc(C(O)/C(=N\NS(=O)(=O)c3ccc(C)cc3)c3nc4ccc([N+](=O)[O-])cc4[nH]c3=O)cc2)cc1 (stereo unspecified)
Solution: > 100 µM

Exercise: Let me know recorded TGI for CC(=O)NNc1nc(C)c(C(=O)NNC(=O)C(=O)Nc2ccc(Cl)cc2Cl)s1 , thanks.
Solution: > 100 µM

Exercise: Determine from records and report TGI for C=CCOCn1cc(C)c(=O)[nH]c1=O
Solution: > 100 µM

Exercise: Using the record for Cc1ccc(S(=O)(=O)NC(CN)C(=O)O)cc1 (stereo unspecified) , state its measured TGI.
Solution: > 100 µM

Exercise: Identify measured TGI corresponding to CCN1CCN(C(=O)[C@]23CCC(C)(C)C[C@@H]2C2=CC[C@@H]4[C@@]5(C)C/C(=C/c6ccncc6)C(=O)C(C)(C)[C@@H]5CC[C@@]4(C)[C@]2(C)CC3)CC1
Solution: 3.14 µM

Exercise: Identify the reported TGI for the following entry. COc1cc2nc3cc([N+](=O)[O-])ccc3c(NCCNCC(C)(C)O)c2cc1OC
Solution: 1.4 µM

Exercise: State its TGI: C[C@]12CCC3[C@@H](CC[C@@H]4c5nonc5CC[C@]34C)C1CC[C@@H]2O (stereo partly specified)
Solution: > 100 µM

Exercise: Give recorded TGI. CCn1c(-c2nonc2N)nc2cncc(C(=O)N3CC[C@H](N)C3)c21
Solution: > 25 µM

Exercise: Check the records and state TGI for COc1ccc(C(OCC2OC(n3ccc(NC(=O)c4ccccc4)nc3=O)CC2OP2(=S)SCCS2)(c2ccccc2)c2ccc(OC)cc2)cc1 (stereo unspecified)
Solution: 69.7 µM

Exercise: Supply recorded TGI for Cn1c(N/N=C/c2ccccc2)nc(-c2ccc([N+](=O)[O-])cc2)c(C#N)c1=O here.
Solution: > 100 µM

Exercise: Given CCN(CC)c1ccc2cc(C(=O)Nc3ccccn3)c(=N)oc2c1 , respond with its TGI.
Solution: > 100 µM

Exercise: Supply measured TGI of CN(C)c1cccc(NC2=NCCO2)c1 in your reply.
Solution: 47.4 µM

Exercise: Find the measured TGI of CN(CC(=O)N(Cc1ccc(C2CCCCC2)cc1)c1ccc(C(=O)O)cc1)S(=O)(=O)c1c(F)c(F)c(F)c(F)c1F and report it.
Solution: 4.11 µM
